Where do these numbers come from? They come from patent US9890153B2.

pIC50: −log10 of the molar value.
A set of compounds tested on SIK3 (QSK) (SEQ ID NO: 24) (Homo sapiens), with measured pIC50:

Here are 5 compounds together with their reported answers.
pIC50 measured on COc1c(F)cccc1-c1c[nH]c2ncc(-c3ccc(CN4CCOCC4)s3)cc12 [Example 142] = > 7.00

pIC50 measured on FC1(F)Oc2cccc(-c3c[nH]c4ncc(-c5csc(N6CCOCC6)n5)cc34)c2O1 [Example 199] = < 7.00

pIC50 measured on COc1cc(Cl)ccc1-c1n[nH]c2nccc(-c3ccsc3)c12 [Example 6] = < 6.00

pIC50 measured on Fc1cccc(-c2c[nH]c3ncc(-c4ccc(CN5CCOCC5)s4)cc23)c1Cl [Example 133] = < 7.00

pIC50 measured on CN1CCN(S(=O)(=O)n2cc(-c3cnc4[nH]cc(-c5ccc6c(c5)OC(F)(F)O6)c4c3)cn2)CC1 [Example 219] = > 7.00

Next:
pIC50 measured on FC1(F)Oc2ccc(-c3c[nH]c4ncc(-c5ccc(CN6CCOCC6)s5)cc34)cc2O1 [Example 200] = > 7.00

pIC50 measured on Fc1ccc(-c2n[nH]c3nccc(-c4ccsc4)c23)c(F)c1 [Example 2] = < 6.00

pIC50 measured on COc1c(F)cccc1-c1c[nH]c2ncc(-c3csc(N4CCOCC4)n3)cc12 [Example 207] = > 7.00

pIC50 measured on COc1ccccc1-c1c[nH]c2nccc(-c3ccsc3)c12 [Example 17] = < 7.00

---

biological target: SIK3 (QSK) (SEQ ID NO: 24) (Homo sapiens)
Sequence (Q9Y2K2 whole entry): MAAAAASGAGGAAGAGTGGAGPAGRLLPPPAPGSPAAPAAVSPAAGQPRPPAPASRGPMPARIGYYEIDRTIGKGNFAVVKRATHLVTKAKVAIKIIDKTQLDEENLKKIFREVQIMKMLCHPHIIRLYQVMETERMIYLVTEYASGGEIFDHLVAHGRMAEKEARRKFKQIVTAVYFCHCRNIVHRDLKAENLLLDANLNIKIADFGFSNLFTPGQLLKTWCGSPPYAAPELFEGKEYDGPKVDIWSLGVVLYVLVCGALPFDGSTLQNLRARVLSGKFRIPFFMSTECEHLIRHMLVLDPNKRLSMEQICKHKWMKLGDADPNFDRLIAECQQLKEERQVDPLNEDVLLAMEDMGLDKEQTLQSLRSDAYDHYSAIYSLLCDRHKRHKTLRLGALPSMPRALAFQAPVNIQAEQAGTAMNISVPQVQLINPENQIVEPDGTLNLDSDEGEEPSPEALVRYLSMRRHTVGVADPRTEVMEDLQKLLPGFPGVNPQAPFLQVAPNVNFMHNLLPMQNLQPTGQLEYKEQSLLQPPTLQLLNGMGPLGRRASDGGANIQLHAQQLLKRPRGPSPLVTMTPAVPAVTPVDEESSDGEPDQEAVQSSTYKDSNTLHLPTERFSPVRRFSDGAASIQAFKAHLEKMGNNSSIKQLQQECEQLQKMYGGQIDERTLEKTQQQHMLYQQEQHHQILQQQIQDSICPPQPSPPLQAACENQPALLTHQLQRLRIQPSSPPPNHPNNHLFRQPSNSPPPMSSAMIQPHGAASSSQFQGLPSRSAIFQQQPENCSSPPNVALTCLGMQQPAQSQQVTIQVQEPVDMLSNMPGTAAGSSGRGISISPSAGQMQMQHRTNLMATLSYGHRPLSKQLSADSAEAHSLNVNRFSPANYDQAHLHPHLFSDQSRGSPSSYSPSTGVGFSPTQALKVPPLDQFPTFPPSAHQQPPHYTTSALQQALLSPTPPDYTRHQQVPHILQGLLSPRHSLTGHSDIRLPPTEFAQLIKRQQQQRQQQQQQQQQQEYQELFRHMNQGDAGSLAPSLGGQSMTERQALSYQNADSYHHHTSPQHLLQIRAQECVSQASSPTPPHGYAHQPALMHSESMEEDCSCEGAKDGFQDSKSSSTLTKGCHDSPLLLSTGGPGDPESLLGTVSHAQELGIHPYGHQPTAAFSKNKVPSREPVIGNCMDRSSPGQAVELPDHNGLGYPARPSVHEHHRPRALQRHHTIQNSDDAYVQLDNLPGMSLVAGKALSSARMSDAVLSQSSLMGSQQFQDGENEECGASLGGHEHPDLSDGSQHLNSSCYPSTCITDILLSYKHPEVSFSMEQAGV
pIC50: −log10 of the molar value.
measuredAttribute: pIC50

Here are 2 molecules together with their reported answers.
pIC50 measured on FC1(F)Oc2cccc(-c3c[nH]c4ncc(-c5ccc(CN6CCCC6)s5)cc34)c2O1 [Example 197] = > 7.00

pIC50 measured on COc1c(F)cccc1-c1c[nH]c2ncc(-c3cnc(N4CCOCC4)s3)cc12 [Example 176] = < 7.00

Next:
pIC50 measured on CN(C(C)(C)C)S(=O)(=O)c1cccc(-c2cnc3[nH]cc(-c4ccc5c(c4)OC(F)(F)O5)c3c2)c1 [Example 202] = > 7.00

pIC50 measured on FC1(F)Oc2ccc(-c3c[nH]c4ncc(-c5csc(N6CCOCC6)n5)cc34)cc2O1 [Example 205] = > 7.00

pIC50 measured on COc1c(F)cccc1-c1c[nH]c2ncc(-c3ccc(CN4CCCC4)s3)cc12 [Example 174] = < 7.00

---

assay: Rat bioavailability and pharmacokinetics; type: in vivo, male Sprague Dawley rats; settings: male, Sprague Dawley, plasma; PO 20 mg/kg, rat; read-out: Cmax
measuredAttribute: Cmax (ng/mL)
Kindly provide the numeric value in ng/mL only, without the unit symbol.

Cmax measured on Fc1cccc(-c2c[nH]c3ncc(-c4ccsc4)cc23)c1Cl [Example 114] = 853

---

assay: Rat bioavailability and pharmacokinetics; assay type: in vivo, male Sprague Dawley rats; conditions: male, Sprague Dawley, plasma; IV 5 mg/kg, rat
measuredAttribute: clearance (mL/min/kg)
Kindly provide the numeric value in mL/min/kg only, without the unit symbol.

clearance measured on Fc1cccc(-c2c[nH]c3ncc(-c4ccsc4)cc23)c1Cl = 33.4

---

assay: Rat bioavailability and pharmacokinetics; format: in vivo, male Sprague Dawley rats; details: male, Sprague Dawley, plasma; PO 20 mg/kg, rat
measuredAttribute: AUC(0-t) (ng·h/mL)
Kindly provide the numeric value in ng·h/mL only, without the unit symbol.

AUC(0-t) measured on Fc1cccc(-c2c[nH]c3ncc(-c4ccsc4)cc23)c1Cl = 1580

---

A set of compounds tested on SIK1 (SEQ ID NO: 10) (Homo sapiens, UniProt P57059), with measured pIC50:
pIC50: −log10 of the molar value.

pIC50 measured on COc1c(F)cc(F)cc1-c1c[nH]c2ncc(-c3cnn(C4CCN(C)CC4)c3)cc12 = < 7.00

We now examine a further compound.
pIC50 measured on FC1(F)Oc2cccc(-c3c[nH]c4ncc(-c5ccc(CN6CCCCC6)s5)cc34)c2O1 = < 7.00

---

Collected pIC50 values appear next to each entry.
molecular target: SIK2 (QIK) (SEQ ID NO: 11) (Homo sapiens); experiment: SIK2 kinase assay (radiometric, 10 μM ATP); format: biochemical; settings: read-out: SIK2 (QIK) (SEQ ID NO: 11) kinase inhibition result
pIC50: −log10 of the molar value.

Here are 5 compounds together with their reported answers.
pIC50 measured on FC1(F)Oc2ccc(-c3c[nH]c4ncc(-c5ccc(CN6CCOCC6)s5)cc34)cc2O1 [Example 200] = > 7.00

pIC50 measured on COc1c(F)cc(F)cc1-c1c[nH]c2ncc(-c3csc(N4CCOCC4)n3)cc12 [Example 208] = > 7.00

pIC50 measured on Oc1ccccc1-c1c[nH]c2ncc(-c3ccc(CN4CCOCC4)s3)cc12 [Example 192] = > 7.00

pIC50 measured on CS(=O)(=O)N1CCN(c2cnn(-c3cnc4[nH]cc(-c5ccc6c(c5)OC(F)(F)O6)c4c3)c2)CC1 [Example 224] = > 7.00

pIC50 measured on Clc1cccc(-c2c[nH]c3nccc(-c4ccsc4)c23)c1 [Example 47] = < 7.00

We now examine a further compound.
pIC50 measured on Fc1cc(OC(F)(F)F)ccc1-c1c[nH]c2nccc(-c3ccsc3)c12 [Example 100] = < 6.00

---

pIC50: −log10 of the molar value.
A set of compounds tested on SIK1 (SEQ ID NO: 10) (Homo sapiens), with measured pIC50:

With SIK1 (SEQ ID NO: 10) (Homo sapiens) as the test system, COc1c(F)cc(F)cc1-c1c[nH]c2ncc(-c3cccc(S(=O)(=O)N4CCCC4)c3)cc12 showed pIC50 of < 6.00

With SIK1 (SEQ ID NO: 10) (Homo sapiens) as the test system, COc1c(F)cc(F)cc1-c1c[nH]c2ncc(-c3ccc(CN4CCCCC4)s3)cc12 showed pIC50 of < 6.00

With SIK1 (SEQ ID NO: 10) (Homo sapiens) as the test system, COc1c(F)cccc1-c1c[nH]c2ncc(-c3ccc(C)o3)cc12 showed pIC50 of < 6.00

With SIK1 (SEQ ID NO: 10) (Homo sapiens) as the test system, CN(C)S(=O)(=O)c1cccc(-c2cnc3[nH]cc(-c4cccc(F)c4Cl)c3c2)c1 showed pIC50 of < 7.00

With SIK1 (SEQ ID NO: 10) (Homo sapiens) as the test system, COc1c(F)cc(F)cc1-c1c[nH]c2ncc(-n3cc(N4CCN(CCO)CC4)cn3)cc12 showed pIC50 of < 7.00

Next:
With SIK1 (SEQ ID NO: 10) (Homo sapiens) as the test system, COc1c(F)cc(F)cc1-c1c[nH]c2ncc(-c3cccc(S(=O)(=O)N(C)C(C)(C)C)c3)cc12 showed pIC50 of < 6.00

---

Collected IC50 values appear next to each entry.
biological target: SIK2 (QIK) (SEQ ID NO: 11) (Homo sapiens, UniProt Q9H0K1); experiment: SIK2 kinase assay (radiometric, 10 μM ATP); assay type: biochemical; conditions: read-out: SIK2 (QIK) (SEQ ID NO: 11) kinase inhibition result
Sequence (Q9H0K1 whole entry): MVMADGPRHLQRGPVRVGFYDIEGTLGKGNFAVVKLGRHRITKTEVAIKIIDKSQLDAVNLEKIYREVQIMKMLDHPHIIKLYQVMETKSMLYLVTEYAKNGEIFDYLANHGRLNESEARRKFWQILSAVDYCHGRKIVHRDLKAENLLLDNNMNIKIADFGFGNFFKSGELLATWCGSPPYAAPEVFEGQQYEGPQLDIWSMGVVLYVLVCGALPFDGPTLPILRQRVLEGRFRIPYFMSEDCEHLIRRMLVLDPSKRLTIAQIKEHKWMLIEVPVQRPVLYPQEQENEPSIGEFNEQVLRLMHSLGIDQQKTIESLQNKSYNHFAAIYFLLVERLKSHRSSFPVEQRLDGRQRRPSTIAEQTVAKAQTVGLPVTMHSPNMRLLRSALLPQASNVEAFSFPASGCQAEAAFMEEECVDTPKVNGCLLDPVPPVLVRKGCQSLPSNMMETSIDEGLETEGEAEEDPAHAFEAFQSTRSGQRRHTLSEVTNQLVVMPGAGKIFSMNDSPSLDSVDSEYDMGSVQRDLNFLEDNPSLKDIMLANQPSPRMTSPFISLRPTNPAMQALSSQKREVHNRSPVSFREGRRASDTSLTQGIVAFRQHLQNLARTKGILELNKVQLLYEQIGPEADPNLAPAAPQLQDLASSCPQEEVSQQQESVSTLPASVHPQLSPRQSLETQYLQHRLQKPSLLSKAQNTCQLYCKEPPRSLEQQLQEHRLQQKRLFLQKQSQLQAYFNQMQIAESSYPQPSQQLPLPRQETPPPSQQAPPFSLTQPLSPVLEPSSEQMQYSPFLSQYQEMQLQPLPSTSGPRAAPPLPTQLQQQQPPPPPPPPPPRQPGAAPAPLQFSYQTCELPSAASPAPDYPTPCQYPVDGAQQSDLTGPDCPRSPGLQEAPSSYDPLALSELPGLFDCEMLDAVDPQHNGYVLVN

IC50 measured on COc1c(F)cc(F)cc1-c1c[nH]c2ncc(-c3ccc(CN4CCCCC4)s3)cc12 = < 100 nM

IC50 measured on Clc1ccnc2[nH]cc(-c3ccsc3)c12 = > 100 nM

IC50 measured on FC(F)(F)Oc1ccccc1-c1c[nH]c2nccc(-c3ccsc3)c12 = > 1000 nM

Next:
IC50 measured on COc1cc(Cl)ccc1-c1n[nH]c2nccc(-c3ccsc3)c12 = > 100 nM

IC50 measured on Cc1nc(Nc2cnc3[nH]cc(-c4cccc(F)c4Cl)c3c2)sc1Cl = > 100 nM

---

A set of compounds tested on SIK1 (SEQ ID NO: 10) (Homo sapiens, UniProt P57059), with measured IC50:

Here are 5 compounds together with their reported answers.
With SIK1 (SEQ ID NO: 10) (Homo sapiens, UniProt P57059) as the test system, Fc1cccc(-c2c[nH]c3ncc(-c4ccsc4)cc23)c1Cl showed IC50 of > 100 nM

With SIK1 (SEQ ID NO: 10) (Homo sapiens, UniProt P57059) as the test system, Oc1c(F)cccc1-c1c[nH]c2ncc(-c3ccc(CN4CCOCC4)s3)cc12 showed IC50 of > 100 nM

With SIK1 (SEQ ID NO: 10) (Homo sapiens, UniProt P57059) as the test system, Cc1ccc(-c2ccnc3[nH]cc(-c4cccc(F)c4Cl)c23)o1 showed IC50 of > 1000 nM

With SIK1 (SEQ ID NO: 10) (Homo sapiens, UniProt P57059) as the test system, CN(C(C)(C)C)S(=O)(=O)c1cccc(-c2cnc3[nH]cc(-c4cccc5c4OC(F)(F)O5)c3c2)c1 showed IC50 of > 100 nM

With SIK1 (SEQ ID NO: 10) (Homo sapiens, UniProt P57059) as the test system, COc1c(F)cccc1-c1c[nH]c2ncc(-c3ccc(CN4CCCCC4)s3)cc12 showed IC50 of > 1000 nM

Next:
With SIK1 (SEQ ID NO: 10) (Homo sapiens, UniProt P57059) as the test system, O=S(=O)(c1ccc(-c2c[nH]c3nccc(-c4ccsc4)c23)cc1)N1CCC1 showed IC50 of > 1000 nM

With SIK1 (SEQ ID NO: 10) (Homo sapiens, UniProt P57059) as the test system, COc1c(F)cccc1-c1c[nH]c2ncc(-c3cccc(S(=O)(=O)N(C)C)c3)cc12 showed IC50 of > 1000 nM

With SIK1 (SEQ ID NO: 10) (Homo sapiens, UniProt P57059) as the test system, COc1c(F)cccc1-c1c[nH]c2ncc(-c3cccc(S(=O)(=O)N4CCCC4)c3)cc12 showed IC50 of > 1000 nM
